- System: human organs
- assay notes: Absorbed doses of radiation, estimates for human organs (OLINDA software)
- conditions: human organ: Red Marrow
Reported radiation dose estimate, Red Marrow by item:
Response body: numeric value in mSv/MBq, unit text excluded.

See these solved cases before continuing.
O=C([O-])CN1CCN(CC(=O)[O-])CCN(CC(=O)NCC2CCC(C(=O)N[C@@H](Cc3ccc4ccccc4c3)C(=O)NCCCC[C@H](NC(=O)N[C@@H](CCC(=O)O)C(=O)O)C(=O)O)CC2)CCN(CC(=O)[O-])CC1.[177Lu+3] (stereo partly shown) [^177Lu-PSMA-617, reference compound]	3.80E−03
O=C([O-])CN1CCN(CC(=O)[O-])CCN(CC(=O)N2CCO[C@]3(CC[C@H](C(=O)N[C@@H](Cc4ccc5ccccc5c4)C(=O)NCCCC[C@H](NC(=O)N[C@@H](CCC(=O)O)C(=O)O)C(=O)O)CC3)C2)CCN(CC(=O)[O-])CC1.[177Lu+3] [^177Lu-v]	4.16E−03
O=C([O-])CN1CCN(CC(=O)[O-])CCN(CC(=O)NCC2CCC(C(=O)N[C@@H](Cc3ccc4ccccc4c3)C(=O)NCCCC[C@H](NC(=O)N[C@@H](CCC(=O)O)C(=O)O)C(=O)O)CC2)CCN(CC(=O)[O-])CC1.[68Ga+3] (stereo partly shown) [^68Ga-PSMA-617, reference compound]	2.11E−02

Respond only with radiation dose estimate, Red Marrow recorded for O=C([O-])CN1CCN(CC(=O)[O-])CCN(CC(=O)N2CCO[C@]3(CC[C@H](C(=O)N[C@@H](Cc4ccc5ccccc5c4)C(=O)NCCCC[C@H](NC(=O)N[C@@H](CCC(=O)O)C(=O)O)C(=O)O)CC3)C2)CCN(CC(=O)[O-])CC1.[68Ga+3] [^68Ga-v]
2.12E−03

###

Each entry below carries its recorded radiation dose estimate, Rectum.
- Tested on: human organs
- assay notes: Absorbed doses of radiation, estimates for human organs (OLINDA software)
- conditions: human organ: Rectum
Write the value in mSv/MBq as a bare number.

Below, each entry is followed by its recorded radiation dose estimate, Rectum result.
O=C([O-])CN1CCN(CC(=O)[O-])CCN(CC(=O)N2CCO[C@]3(CC[C@H](C(=O)N[C@@H](Cc4ccc5ccccc5c4)C(=O)NCCCC[C@H](NC(=O)N[C@@H](CCC(=O)O)C(=O)O)C(=O)O)CC3)C2)CCN(CC(=O)[O-])CC1.[177Lu+3] [^177Lu-v]	1.91E−03
O=C([O-])CN1CCN(CC(=O)[O-])CCN(CC(=O)NCC2CCC(C(=O)N[C@@H](Cc3ccc4ccccc4c3)C(=O)NCCCC[C@H](NC(=O)N[C@@H](CCC(=O)O)C(=O)O)C(=O)O)CC2)CCN(CC(=O)[O-])CC1.[177Lu+3] (stereo partly shown) [^177Lu-PSMA-617, reference compound]	1.49E−03
O=C([O-])CN1CCN(CC(=O)[O-])CCN(CC(=O)NCC2CCC(C(=O)N[C@@H](Cc3ccc4ccccc4c3)C(=O)NCCCC[C@H](NC(=O)N[C@@H](CCC(=O)O)C(=O)O)C(=O)O)CC2)CCN(CC(=O)[O-])CC1.[68Ga+3] (stereo partly shown) [^68Ga-PSMA-617, reference compound]	1.83E−01

Let's switch to this compound now.
Give radiation dose estimate, Rectum; test system human organs; compound O=C([O-])CN1CCN(CC(=O)[O-])CCN(CC(=O)N2CCO[C@]3(CC[C@H](C(=O)N[C@@H](Cc4ccc5ccccc5c4)C(=O)NCCCC[C@H](NC(=O)N[C@@H](CCC(=O)O)C(=O)O)C(=O)O)CC3)C2)CCN(CC(=O)[O-])CC1.[68Ga+3] [^68Ga-v]
1.99E−01
